# EC50 annotations
Target: Corticotropin-releasing factor receptor 2/Corticotropin-releasing factor-binding protein (Homo sapiens, UniProt P24387+Q13324)
Sequence (Q13324 whole entry): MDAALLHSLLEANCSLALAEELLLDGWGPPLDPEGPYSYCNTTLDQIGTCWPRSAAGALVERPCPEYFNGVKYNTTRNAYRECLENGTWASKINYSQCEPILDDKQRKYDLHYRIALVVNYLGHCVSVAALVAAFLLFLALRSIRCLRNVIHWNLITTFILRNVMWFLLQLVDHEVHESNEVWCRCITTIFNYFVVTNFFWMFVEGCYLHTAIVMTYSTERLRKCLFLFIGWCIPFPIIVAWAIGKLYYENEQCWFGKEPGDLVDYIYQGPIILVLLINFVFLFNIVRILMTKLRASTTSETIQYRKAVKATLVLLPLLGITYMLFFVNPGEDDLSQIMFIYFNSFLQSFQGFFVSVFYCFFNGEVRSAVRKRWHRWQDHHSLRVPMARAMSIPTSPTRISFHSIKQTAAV
Sequence (P24387 whole entry): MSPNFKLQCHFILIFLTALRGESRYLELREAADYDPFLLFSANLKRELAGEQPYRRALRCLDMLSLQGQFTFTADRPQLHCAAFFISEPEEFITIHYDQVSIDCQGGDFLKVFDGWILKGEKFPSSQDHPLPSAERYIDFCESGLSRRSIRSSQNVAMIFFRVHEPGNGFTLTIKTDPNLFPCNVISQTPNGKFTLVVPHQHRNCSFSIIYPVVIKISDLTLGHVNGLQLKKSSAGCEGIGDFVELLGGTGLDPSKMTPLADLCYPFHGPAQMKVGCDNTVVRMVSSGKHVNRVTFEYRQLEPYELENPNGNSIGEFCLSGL
Assay: activators of CRF receptor 2 with binding protein – uHTS hits, confirmation (AID 602473)
Assay type: functional
Conditions: read-out: EC50_Mean
Activity calls are given as the source filed them. No stated cut-off is given here; in the data, actives have a measured EC50 and inactives only a lower limit.

Below are worked cases with known answers.
# COMPOUND, EXPERIMENTAL ENDPOINT, READING
data = [
    ("O=C(NCc1ccccn1)C1CCN(S(=O)(=O)c2c[nH]cn2)CC1", "EC50", "> 53 µM (inactive)"),
    ("COc1cccc(C2CC(c3cccs3)=NN2C(=S)Nc2ccccc2)c1OC (stereo not drawn)", "EC50", "> 53 µM (inactive)"),
    ("Clc1ccc(-c2nnc(CSc3nnc(-c4cccs4)o3)o2)cc1", "EC50", "> 53 µM (inactive)"),
    ("Oc1ccc(/C=N/Nc2nc(N3CCCCCC3)nc(N3CCCCCC3)n2)c(O)c1", "EC50", "> 53 µM (inactive)"),
    ("CN1c2ccccc2C(O)=C(C(S)=Nc2ccc(Cl)cc2)S1(=O)=O", "EC50", "> 53 µM (inactive)"),
    ("CCOC(=O)c1sc(NC(=O)c2cccc(S(=O)(=O)N3CCN(C)CC3)c2)cc1C", "EC50", "> 53 µM (inactive)"),
    ("CC1=NN(C(=O)c2ccc(Br)cc2)C(O)(C(F)(F)OC(F)(F)F)C1 (stereo not drawn)", "EC50", "46 µM (active)"),
    ("CC(Oc1cccc(Cl)c1)C(=O)NNC(=O)c1cccnc1 (stereo not drawn)", "EC50", "> 53 µM (inactive)"),
]

Q: Give EC50 for "Cc1ccc(S(=O)(=O)N(C)CC(=O)NCCCc2ccccc2)cc1"
Result: > 53 µM (inactive)

Q: Provide measured EC50 value, entry: O=C(NC(C(=O)N/N=C/c1ccccc1)c1nnc(O)c2ccccc12)c1ccccc1 (stereo not drawn)
Result: 5.14 µM (active)
